Target: T1, huCD33-G69 stably expressed on Jurkat cells (human, UniProt P20138 18-364)
T1 construct: whole, on cells; >200,000 receptors per cell; also called CD33 Mutant; CD33 R69G
T1 sequence (P20138 18-364 R69G): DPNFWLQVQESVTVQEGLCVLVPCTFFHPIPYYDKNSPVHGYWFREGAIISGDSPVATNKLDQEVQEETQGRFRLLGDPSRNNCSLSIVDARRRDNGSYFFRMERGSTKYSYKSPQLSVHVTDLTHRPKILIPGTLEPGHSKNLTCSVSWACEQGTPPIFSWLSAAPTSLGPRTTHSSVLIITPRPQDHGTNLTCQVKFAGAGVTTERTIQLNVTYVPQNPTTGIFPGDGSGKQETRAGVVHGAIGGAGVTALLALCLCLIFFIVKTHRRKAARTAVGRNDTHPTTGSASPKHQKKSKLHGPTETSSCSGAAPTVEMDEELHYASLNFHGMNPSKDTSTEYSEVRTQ
Assay: FACS on cells;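 further: fixed Jurkat lines probed with myc-tagged scFv periplasmic extracts, anti-myc PE flow cytometry, PE MFI fold binned − <2, + 2–10, ++ 10–30, +++ >30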
VALUE_KIND: FACS geometric mean fold change over Jurkat parental

In the examples that follow, each entry is paired with its recorded FACS geometric mean fold change over Jurkat parental.
INSERT INTO results (binder, observed_value) VALUES
  ('Polypeptide No. 89 (scFv, V domains shown, scFv) VH: QVQLVQSGAEVKKPGASVKVSCKASGYTFTNYYMHWVRQAPGQGLEWMGWINPNSGDTNYEQKFQGRVTMTRDTSTSTVYMELSSLRSEDTAVYYCARDDRIQLWVPLVFWGQGTLVTVSS VL: DIQMTQSPSSLSASVGDRVTITCRASQGISNYLAWYQQKPGKAPKLLIYSASNLQSGVPSRFSGSGSGTDFTLTISSLQPEDFATYYCQQSFSTPFTFGQGTKLEIKR', '10 to 30 fold'),
  ('Polypeptide No. 106 (scFv, V domains shown, scFv) VH: QVQLVQSGAEVKKPGASVKVSCKASGYTFTGYYMHWVRQAPGQGLEWMGRIKPNSGGTDYAQKFQGRVTMTRDTSTSTVYMELSSLRSEDTAVYYCARGAYSGSYYGPIEYFQHWGQGTLVTVSS VL: DIQMTQSPSSLSASVGDRVTITCRASQSISWFLNWYQQKPGKAPKLLIYAASSLQNGVPSRFSGSGSGTDFTLTISSLQPEDFATYYCQQYGSFPPTFGGGTKVEIKR', '2 to 10 fold'),
  ('Polypeptide No. 136 (scFv, V domains shown, scFv) VH: QVQLVQSGAEVKKPGASVKVSCKASGDTLTNHFVHWVRQAPGQGLEWMGWMNPNSGNTGYAQKFQGRVTMTRDTSTSTVYMELSSLRSEDTAVYYCARDPQMGAVAGGFDYWGQGTLVTVSS VL: DIQMTQSPSSLSASVGDRVTITCRASQRIGNWLAWYQQKPGKAPKLLIYAASSLQSGVPSRFSGSGSGTDFTLTISSLQPEDFATYYCQQSYSPPLTFGPGTKVDIKR', '10 to 30 fold');

Req: May I ask what FACS geometric mean fold change over Jurkat parental has been recorded for Polypeptide No. 130 (scFv, V domains shown, scFv) VH: QVQLVQSGAEVKKPGASVKVSCKASGGTFSNYAISWVRQAPGQGLEWMAWMNPNSGNTGYAQKFQGRVTMTRDTSTSTVYMELSSLRSEDTAVYYCARDGFIGFGELFSAFDIWGQGTMVTVSS VL: DIQMTQSPSSLSASVGDRVTITCRASQSIGTWLAWYQQKPGKAPKLLIYGATRLLSGVPSRFSGSGSGTDFTLTISSLQPEDFATYYCQQSYSTPPTFGQGTKLEIKR ?
Resp: 10 to 30 fold

Req: May I ask what FACS geometric mean fold change over Jurkat parental has been recorded for Polypeptide No. 109 (scFv, V domains shown, scFv) VH: QVQLVQSGAEVKKPGSSVKVSCKASGYTFTTYGISWVRQAPGQGLEWMGWMNPNSGNTGYAQKFQGRVTITADESTSTAYMELSSLRSEDTAVYYCAREGGDGDYPDYWGQGTLVTVSS VL: EIVMTQSPATLSVSPGERATLSCRASQSISSSSLAWYQQKPGQAPRLLIYGASTRATGIPARFSGSGSGTEFTLTISSLQSEDFAVYYCQQYETAPYTFGQGTKLEIKR ?
Resp: 10 to 30 fold

Numbers sourced from patent US20240101668A1.
